System: HCT 116 human colorectal carcinoma
protocol.summary: SRB cell proliferation (cytotoxicity) assay, HCT 116
condition.context: HCT 116
Description: The XLSTAT software was used to determine the IC50, TGI and LC50 values using the four-parameter logistic curve equation.
I'd appreciate it if you could supply TGI: Concentration for total inhibition of cell growth values for the items below.
Give bare numbers, in µM.

Previously resolved entries follow.
* AGCTGACACAGCAGGTTGGTGCCAACAAGAAAAGAAACCGTTACAGAAGACACTACAGAATAAGTGAAAAGCCGAGTCGAGCAATCTCGAAAT (nucleic acid, chemistry not given here) DNA: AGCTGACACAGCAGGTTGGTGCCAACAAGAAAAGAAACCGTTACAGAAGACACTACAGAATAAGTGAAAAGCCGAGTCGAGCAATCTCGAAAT | 47.447
* AGCTGACACAGCAGGTTGGTGCGCCCAATACAGGCGCAGTATCTGTCCGTGGGCCGGGTAAAAGTTACGGACCGAGTCGAGCAATCTCGAAAT (nucleic acid, chemistry not given here) DNA: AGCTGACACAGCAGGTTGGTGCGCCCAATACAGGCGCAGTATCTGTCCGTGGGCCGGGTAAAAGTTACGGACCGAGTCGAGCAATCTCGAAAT | 41.730
* CTGACACAGCAGGTTGGTGCCAACTAACACCATAAGAATACCCCGCTCCAAATAAGCCCACACGTAAACCCGAGTCGAGCAATCTCGAAAT (nucleic acid, chemistry not given here, DNA aptamer that recognizes human galectin-1) DNA: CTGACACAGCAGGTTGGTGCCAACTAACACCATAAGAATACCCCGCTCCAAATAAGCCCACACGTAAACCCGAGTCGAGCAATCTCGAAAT | 45.410

IN: Give me measured TGI: Concentration for total inhibition of cell growth, please, for this molecule: AGCTGACACAGCAGGTTGGTGCCCAAAAGAGCCAATCCACGACGACACCCCAAAAACCATATCACGAATACCCGAGTCGAGCAATCTCGAAAT (nucleic acid, chemistry not given here) DNA: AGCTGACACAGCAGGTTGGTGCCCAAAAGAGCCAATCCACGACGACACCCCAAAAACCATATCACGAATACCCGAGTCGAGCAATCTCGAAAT
OUT: 58.519
